The values you see were collected from patent US20260234165A1.

- TEST METHOD NOTES: Assay for stability in liver microsomes
- Format: in vitro ADME
- CONDITIONS USED: human liver microsomes; liver intrinsic clearance rate
Give measured CLint scaled at 1 µM for each item. Keep answers brief.
Answers are plain numbers, in mL/min/kg.

>  <COMPOUND>
CCO[C@@H](C)c1ncc(N2CCN(CCS(C)(=O)=O)CC2)cc1-c1c2c3cc(ccc3n1CC)-c1csc(n1)C[C@H](NC(=O)[C@H]1[C@H](C)[C@@H]1C)C(=O)N1CCC[C@H](N1)C(=O)OCC1(CC1)C2 (single isomer, unassigned)

>  <CLint scaled at 1 µM [mL/min/kg]>
25

$$$$
>  <COMPOUND>
CCn1c(-c2cc(N3CCN4CC5(CC5)OC[C@@H]4C3)cnc2[C@H](C)OC)c2c3cc(ccc31)-c1csc(n1)C[C@H](NC(=O)[C@H]1[C@H](C)[C@@H]1C)C(=O)N1CCC[C@H](N1)C(=O)OCC1(CC1)C2 (atropisomer, axis not shown; (Ra))

>  <CLint scaled at 1 µM [mL/min/kg]>
43.7

$$$$

# batch size: 2; output CLint scaled at 1 µM per entry
1. CCn1c(-c2cc(C#CCN3CCC(C(F)(F)F)CC3)cnc2[C@H](C)OC)c2c3cc(ccc31)-c1csc(n1)C[C@H](NC(=O)[C@H]1[C@H](C)[C@@H]1C)C(=O)N1CCC[C@H](N1)C(=O)OCC(C)(C)C2 (atropisomer, axis not shown; (Ra))
2. CCn1c(-c2cc(C#CCN3CCCN(C)CC3)cnc2[C@H](C)OC)c2c3cc(ccc31)-c1csc(n1)C[C@H](NC(=O)[C@H]1[C@H](C)[C@@H]1C)C(=O)N1CCC[C@H](N1)C(=O)OCC(C)(C)C2 (atropisomer, axis not shown; (Ra))

Resp:
[31.9, 16.2]
